Reference for the values: ChEMBL document CHEMBL3112522

- ASSAY_PROTOCOL: Cytotoxicity against human SK-N-SH cells assessed as cell survival at 400 uM incubated for 1 hr followed by compound washout measured after 48 hrs by CCK-8 assay relative to control
- Assay type: cell-based
- TEST_CONDITIONS: read-out: Survival
Provide the reported viability at 1 h, 400 µM of each item.
Numbers only here, please. The scale is %.

[in] Which measured viability at 1 h, 400 µM value corresponds to O=C1C=C2CCC(Br)=C2O1 ?
[out] 6

[in] Try this compound too: O=C1C=C2CCCCC(Br)=C2O1
[out] 13

[in] Try this compound too: O=C1C=C2CCCC(Br)=C2O1
[out] 50

----------
- ASSAY_PROTOCOL: Cytotoxicity against human SK-N-SH cells assessed as cell survival at 400 uM incubated for 1 hr followed by compound washout measured immediately by CCK-8 assay relative to control
- Type: cell-based
- TEST_CONDITIONS: read-out: Survival
MEASURED_METRIC: viability at 1 h, 400 µM
Note to self: number, then unit, no commentary.

[in] Which measured viability at 1 h, 400 µM value corresponds to O=C1C=C2CCCC(Br)=C2O1 ?
[out] 76%

[in] Try this molecule too: O=C1C=C2CCCCC(Br)=C2O1
[out] 44%

[in] Try this molecule too: O=C1C=C2CCC(Br)=C2O1
[out] 76%

[in] Try this molecule too: CC1=C(Br)/C(=C\Br)OC1=O
[out] 29%

----------
- System: SK-N-SH
- ASSAY_PROTOCOL: Cytotoxicity against human SK-N-SH cells assessed as cell survival at 100 uM incubated for 1 hr followed by compound washout measured up to 48 hrs by CCK-8 assay
- Assay type: cell-based

- SMILES_REPRESENTATION: "CC1=C(Br)/C(=C\\Br)OC1=O"
  Activity: "Toxic"
- SMILES_REPRESENTATION: "O=C1C=C2CCCC(Br)=C2O1"
  Activity: "Non-toxic"
- SMILES_REPRESENTATION: "O=C1C=C2CCCCC(Br)=C2O1"
  Activity: "Non-toxic"
- SMILES_REPRESENTATION: "O=C1C=C2CCC(Br)=C2O1"
  Activity: "Non-toxic"

----------
- System: Pseudomonas aeruginosa
- ASSAY_PROTOCOL: Antibacterial activity against Pseudomonas aeruginosa PAO1 assessed as inhibition of biofilm formation incubated for 24 hrs followed by compound-washout measured after 30 mins by crystal-violet staining-based colorimetric assay
- Assay type: functional, organism-based
MEASURED_METRIC: pIC50
Field pIC50 (float): negative decimal logarithm of the concentration in molar.

[in] Which measured pIC50 value corresponds to O=C1C=C2CCCC(Br)=C2O1 ?
[out] 3.84

[in] Try this compound too: O=C1C=C2CCCCC(Br)=C2O1
[out] 3.85
